# Measurement Description: Non-compartmental PK analysis of HBI-8000 plasma concentrations
# Format: in vivo, human
# Experimental Conditions: human, plasma, oral, 20 mg, C1D1, 20 mg, n = 3; geometric mean; read-out: AUC0-24
Assay Metric: AUC(0-t)

Which AUC(0-t) is reported for this compound? Nc1cc(F)ccc1NC(=O)c1ccc(CNC(=O)/C=C/c2cccnc2)cc1
1590 ng·h/mL

---

# Measurement Description: Non-compartmental PK analysis of HBI-8000 plasma concentrations
# Type: in vivo, human
# Experimental Conditions: human, plasma, oral, 40 mg, C1D1, 40 mg, n = 7; geometric mean; read-out: AUC0-24
Assay Metric: AUC(0-t)

Which AUC(0-t) is reported for this molecule? Nc1cc(F)ccc1NC(=O)c1ccc(CNC(=O)/C=C/c2cccnc2)cc1 [HBI-8000]
3690 ng·h/mL

---

# Measurement Description: Non-compartmental PK analysis of HBI-8000 plasma concentrations
# Type: in vivo, human
# Experimental Conditions: human, plasma, oral, 20 mg, C1D1, 20 mg, n = 3; geometric mean; read-out: AUC0-7
Assay Metric: AUC from 0 to 7 h post-dose (ng·h/mL)
Give your result in ng·h/mL as a bare value.

Which AUC from 0 to 7 h post-dose is reported for this compound? Nc1cc(F)ccc1NC(=O)c1ccc(CNC(=O)/C=C/c2cccnc2)cc1 [HBI-8000]
384

---

# Measurement Description: Non-compartmental PK analysis of HBI-8000 plasma concentrations
# Type: in vivo, human
# Experimental Conditions: human, plasma, po, 20 mg, C1D1, 20 mg oral, n = 3; geometric mean; read-out: Cmax
# Excerpt: Statistical analyses of safety, tolerability, and anti-tumor activity were primarily descriptive in nature. Toxicities were tabulated by type and grade. The safety population included all patients who received ≥1 dose of HBI-8000 and nivolumab. Continuous variables were summarized using descriptive statistics and categorical variables were summarized with number and percentage at each category. […]
Assay Metric: Cmax (ng/mL)
Give your result in ng/mL as a bare value.

Which Cmax is reported for this molecule? Nc1cc(F)ccc1NC(=O)c1ccc(CNC(=O)/C=C/c2cccnc2)cc1
105

---

# Measurement Description: Non-compartmental PK analysis of HBI-8000 plasma concentrations
# Type: in vivo, human
# Experimental Conditions: human, plasma, oral, 40 mg, C1D1, 40 mg, n = 6; geometric mean; read-out: AUC0-7
Assay Metric: AUC from 0 to 7 h post-dose
Please report the result as a number followed by the unit.

Which AUC from 0 to 7 h post-dose is reported for this molecule? Nc1cc(F)ccc1NC(=O)c1ccc(CNC(=O)/C=C/c2cccnc2)cc1 [HBI-8000]
973 ng·h/mL

---

# Measurement Description: Non-compartmental PK analysis of HBI-8000 plasma concentrations
# Assay type: in vivo, human
# Experimental Conditions: human, plasma, oral, 40 mg, C2D1, 40 mg, n = 4; median; read-out: tmax
# Text: Statistical analyses of safety, tolerability, and anti-tumor activity were primarily descriptive in nature. Toxicities were tabulated by type and grade. The safety population included all patients who received ≥1 dose of HBI-8000 and nivolumab. Continuous variables were summarized using descriptive statistics and categorical variables were summarized with number and percentage at each category. […]
Assay Metric: Tmax (h)
Give your result in h as a bare value.

Which Tmax is reported for this compound? Nc1cc(F)ccc1NC(=O)c1ccc(CNC(=O)/C=C/c2cccnc2)cc1 [HBI-8000]
6.8

---

# Measurement Description: Non-compartmental PK analysis of HBI-8000 plasma concentrations
# Format: in vivo, human
# Experimental Conditions: human, plasma, oral, 40 mg, C2D1, 40 mg, n = 4; geometric mean; read-out: AUC0-7
Assay Metric: AUC from 0 to 7 h post-dose (ng·h/mL)
Give your result in ng·h/mL as a bare value.

Which AUC from 0 to 7 h post-dose is reported for this compound? Nc1cc(F)ccc1NC(=O)c1ccc(CNC(=O)/C=C/c2cccnc2)cc1 [HBI-8000]
929

---

# Measurement Description: Non-compartmental PK analysis of HBI-8000 plasma concentrations
# Assay type: in vivo, human
# Experimental Conditions: human, plasma, oral, 40 mg, C1D1, 40 mg, n = 7; median; read-out: tmax
Assay Metric: Tmax
Please report the result as a number followed by the unit.

Which Tmax is reported for this molecule? Nc1cc(F)ccc1NC(=O)c1ccc(CNC(=O)/C=C/c2cccnc2)cc1
4.8 h

---

# Measurement Description: Non-compartmental PK analysis of HBI-8000 plasma concentrations
# Type: in vivo, human
# Experimental Conditions: human, plasma, oral, 40 mg, C2D1, 40 mg BIW, n = 4; geometric mean; read-out: Cmax
Assay Metric: Cmax (ng/mL)
Give your result in ng/mL as a bare value.

Which Cmax is reported for this compound? Nc1cc(F)ccc1NC(=O)c1ccc(CNC(=O)/C=C/c2cccnc2)cc1
229

---

# Measurement Description: Non-compartmental PK analysis of HBI-8000 plasma concentrations
# Format: in vivo, human
# Experimental Conditions: human, plasma, oral, 30 mg, C2D1, 30 mg BIW, n = 3; geometric mean; read-out: Cmax
Assay Metric: Cmax (ng/mL)
Give your result in ng/mL as a bare value.

Which Cmax is reported for this compound? Nc1cc(F)ccc1NC(=O)c1ccc(CNC(=O)/C=C/c2cccnc2)cc1
113

---

# Measurement Description: Non-compartmental PK analysis of HBI-8000 plasma concentrations
# Type: in vivo, human
# Experimental Conditions: human, plasma, oral, 30 mg, C1D1, 30 mg, n = 7; geometric mean; read-out: AUC0-7
Assay Metric: AUC from 0 to 7 h post-dose (ng·h/mL)
Give your result in ng·h/mL as a bare value.

Which AUC from 0 to 7 h post-dose is reported for this molecule? Nc1cc(F)ccc1NC(=O)c1ccc(CNC(=O)/C=C/c2cccnc2)cc1
342

---

# Measurement Description: Non-compartmental PK analysis of HBI-8000 plasma concentrations
# Type: in vivo, human
# Experimental Conditions: human, plasma, po, 30 mg, C1D1, 30 mg oral, n = 7; geometric mean; read-out: Cmax
Assay Metric: Cmax (ng/mL)
Give your result in ng/mL as a bare value.

Which Cmax is reported for this compound? Nc1cc(F)ccc1NC(=O)c1ccc(CNC(=O)/C=C/c2cccnc2)cc1
118

---

# Measurement Description: Non-compartmental PK analysis of HBI-8000 plasma concentrations
# Type: in vivo, human
# Experimental Conditions: human, plasma, oral, 30 mg, C2D1, 30 mg, n = 3; median; read-out: tmax
# Description: Statistical analyses of safety, tolerability, and anti-tumor activity were primarily descriptive in nature. Toxicities were tabulated by type and grade. The safety population included all patients who received ≥1 dose of HBI-8000 and nivolumab. Continuous variables were summarized using descriptive statistics and categorical variables were summarized with number and percentage at each category. […]
Assay Metric: Tmax (h)
Give your result in h as a bare value.

Which Tmax is reported for this compound? Nc1cc(F)ccc1NC(=O)c1ccc(CNC(=O)/C=C/c2cccnc2)cc1
6.7

---

# Measurement Description: Non-compartmental PK analysis of HBI-8000 plasma concentrations
# Type: in vivo, human
# Experimental Conditions: human, plasma, oral, 30 mg, C1D1, 30 mg, n = 7; geometric mean; read-out: AUC0-24
Assay Metric: AUC(0-t) (ng·h/mL)
Give your result in ng·h/mL as a bare value.

Which AUC(0-t) is reported for this compound? Nc1cc(F)ccc1NC(=O)c1ccc(CNC(=O)/C=C/c2cccnc2)cc1 [HBI-8000]
1730
